Data origin, for the record: patent US10882826B2

system: A. fumigatus CFBRC2 biofilm; experiment: A. fumigatus biofilm assay, clinical source CFBRC2; format: cell-based, Aspergillus fumigatus; conditions: biofilm from clinical source CFBRC2
Metric: Relative absorbance compared to MeOH (=1), Mean
One number for each entry.

// below: answered compounds
1. CCCCCCCCCc1cc(=O)c2ccccc2[nH]1 0.567
2. CCCCCCCc1nc2ccccc2c(=O)n1N 0.304
3. CCCCCCCc1cc(=O)c2cc(F)ccc2[nH]1 0.823
4. CCCCCCCc1cc(=O)c2cc(C(=O)OCC)ccc2[nH]1 0.620
5. CCCCCCCc1cc(=O)c2c(C)cc(C)cc2[nH]1 0.443

Hi! Can you tell me Relative absorbance compared to MeOH (=1), Mean for each of these compounds?
1. CCCCCCCc1cc(=O)c2ccc(OC)cc2[nH]1
2. CCCCCCCc1cc(=O)c2cccc(Cl)c2[nH]1

1: 0.484; 2: 0.359

* * *

tested on: IB3 lung epithelial cells; assay: LDH release cytotoxicity, IB3-1 cells; type: cell-based; conditions: 100 μM, 16 hr, percentage of 0.1% Triton (100% cytotoxicity), MeOH 3.844
// boundary case: % Cytotoxicity, Mean (LDH release) equal to 20% maps to Criterion not met; strictly smaller maps to Criterion met

Would you please look over these solved cases?
1) CCCCCCCc1cc(=O)c2cc(Cl)ccc2[nH]1 Criterion met
2) CCCCCCCc1nc2ccccc2c(=O)n1N Criterion not met
3) CCCCCCCc1cc(=O)c2cccc(Cl)c2[nH]1 Criterion not met

Attention now shifts to the item below.
Does the reported % Cytotoxicity, Mean (LDH release) of the following molecule sit strictly below 20%? CCCCCCCc1cc(=O)c2cc(C)ccc2[nH]1
Criterion not met
